Please respond with reported pEC50 for every item in the list.
Target: TRPML3 (Homo sapiens)
Construct: expressed in transfected cells
Test: Fluorescent TRPML3 assay (performed as for TRPML1, substituting the TRPML3 subtype)
Assay type: cell-based
pEC50: −log10 of the molar value.

input: Query (molecule): C[C@@H]1CN(c2ncnc3c2c(C(F)(F)F)cn3-c2cc(C(F)(F)F)ccn2)[C@@H](C)CN1C(=O)OC(C)(C)C [Compound 536] ; field requested: pEC50
output: > 7.00

input: pEC50 lookup needed for C[C@@H]1CN(c2ncnc3c2c(C(F)(F)F)cn3C2CCCC(C#N)C2)[C@@H](C)CN1C(=O)OC(C)(C)C (stereo partly shown) [Compound 629] , thanks.
output: 6.30 to 7.00

input: GET /values?readout=pEC50&item= Cc1cn(-c2cc(F)cc(Cl)c2)c2ncnc(N3CCN(C(=O)OC(C)(C)C)C[C@@H]3C)c12 [Compound 693]
output: > 7.00

input: What pEC50 value was documented for this molecule, C[C@@H]1CN(c2ncnc3c2c(C(F)(F)F)cn3-c2cc(C#N)ccn2)[C@H](C)CN1C(=O)OC(C)(C)C [Compound 503] ?
output: 6.30 to 7.00

====

Target: TRPML2 (Homo sapiens)
Construct: expressed in transfected cells
Sequence (Q8IZK6 1-566): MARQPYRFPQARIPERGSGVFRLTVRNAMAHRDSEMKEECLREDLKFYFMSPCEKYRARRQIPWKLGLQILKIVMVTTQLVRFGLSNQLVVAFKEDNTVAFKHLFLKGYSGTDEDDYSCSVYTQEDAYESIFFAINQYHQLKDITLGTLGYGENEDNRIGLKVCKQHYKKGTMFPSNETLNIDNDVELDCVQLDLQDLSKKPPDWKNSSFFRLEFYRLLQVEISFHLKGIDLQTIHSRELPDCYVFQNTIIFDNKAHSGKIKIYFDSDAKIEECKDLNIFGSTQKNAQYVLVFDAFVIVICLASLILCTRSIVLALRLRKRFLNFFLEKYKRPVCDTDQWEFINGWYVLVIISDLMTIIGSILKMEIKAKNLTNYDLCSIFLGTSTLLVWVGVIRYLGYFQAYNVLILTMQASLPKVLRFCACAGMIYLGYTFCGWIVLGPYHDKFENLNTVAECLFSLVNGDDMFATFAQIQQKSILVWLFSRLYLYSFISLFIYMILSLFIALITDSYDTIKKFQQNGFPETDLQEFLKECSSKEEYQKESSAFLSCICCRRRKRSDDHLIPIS
Assay: Fluorescent TRPML2 assay (performed as for TRPML1, substituting the TRPML2 subtype)
Type: cell-based
pEC50: −log10 of the molar value.
quantity.measured: pEC50

input: Which pEC50 is listed for `COc1ccnc(-n2cc(C(F)(F)F)c3c(N4C[C@@H](C)N(C(=O)OC(C)(C)C)C[C@@H]4C)ncnc32)c1` ?
output: 5.70 to 6.30

input: Please give the measured pEC50 for this molecule: `Cc1cn(-c2ccccc2)c2ncnc(N3CCN(C(=O)OC(C)(C)C)C[C@@H]3C)c12`
output: 5.70 to 6.30

input: What does the data say about its pEC50? Entry: `CCc1ccnc(-n2cc(C3CC3)c3c(N4C[C@@H](C)N(C(=O)OC(C)(C)C)C[C@@H]4C)ncnc32)c1`
output: 6.30 to 7.00

input: Data request, read-out pEC50, for `C[C@H]1CN(C(=O)OC(C)(C)C)CCN1c1ncnc2c1c(N1CCC1)cn2-c1cc(F)cc(F)c1`
output: > 7.00

input: So what does the record say about pEC50 for `C=CCOC(=O)N(CCC)c1cn(-c2cc(Cl)ccn2)c2ncnc(N3C[C@@H](C)N(C(=O)OC(C)(C)C)C[C@@H]3C)c12` ?
output: 5.70 to 6.30

input: Would you mind telling me what pEC50 value was observed for `C[C@@H]1CN(c2ncnc3c2c(C2CCC2)cn3-c2cccc(C(F)(F)F)c2)[C@@H](C)CN1C(=O)OC(C)(C)C` ?
output: 6.30 to 7.00

input: I would be grateful if you could share the reported pEC50 for `Cc1cn(-c2ccccn2)c2ncnc(N3C[C@@H](C)N(C(=O)OC(C)(C)C)C[C@@H]3C)c12` .
output: < 5.70

====

Molecular target: TRPML3 (Homo sapiens, UniProt Q8TDD5)
Construct: expressed in transfected cells
Sequence (Q8TDD5 whole entry): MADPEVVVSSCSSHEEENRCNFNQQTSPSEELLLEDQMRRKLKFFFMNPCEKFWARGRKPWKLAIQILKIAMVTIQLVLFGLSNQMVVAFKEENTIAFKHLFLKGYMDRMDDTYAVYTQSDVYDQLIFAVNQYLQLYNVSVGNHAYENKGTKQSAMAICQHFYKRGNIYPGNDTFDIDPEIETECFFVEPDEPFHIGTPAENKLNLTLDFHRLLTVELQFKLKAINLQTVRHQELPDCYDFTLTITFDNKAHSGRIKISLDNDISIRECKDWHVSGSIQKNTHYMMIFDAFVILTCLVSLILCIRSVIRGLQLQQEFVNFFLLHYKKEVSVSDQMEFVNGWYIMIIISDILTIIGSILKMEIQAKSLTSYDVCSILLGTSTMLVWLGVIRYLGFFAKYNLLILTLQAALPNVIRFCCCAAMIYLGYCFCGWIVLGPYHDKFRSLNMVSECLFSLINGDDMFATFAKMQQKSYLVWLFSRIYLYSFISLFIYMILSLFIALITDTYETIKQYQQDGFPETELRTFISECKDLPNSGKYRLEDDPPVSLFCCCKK
Test: Fluorescent TRPML3 assay (performed as for TRPML1, substituting the TRPML3 subtype)
Type: cell-based
Provide the reported EC50 of each item.

input: Requested read-out: EC50. Entry: `C#Cc1ccnc(-n2cc(C3CC3)c3c(N4C[C@@H](C)N(C(=O)OC(C)(C)C)C[C@@H]4C)ncnc32)c1`
output: < 100 nM

input: # input molecule: `[2H]C([2H])([2H])C(OC(=O)N1C[C@H](C)N(c2ncnc3c2c(C(F)F)cn3-c2cc(C#N)ccn2)C[C@H]1C)(C([2H])([2H])[2H])C([2H])([2H])[2H]` ; wanted: its EC50
output: < 100 nM

input: If you can, please state the reported EC50 value of `Cc1cc(C#N)cc(-n2cc(C(F)(F)F)c3c(N4C[C@@H](C)N(C(=O)OC(C)(C)C)C[C@@H]4C)ncnc32)n1` .
output: < 100 nM

input: Recorded EC50 for `Cc1cn(-c2ccccc2)c2ncnc(N3C[C@@H](C)N(C(=O)OC(C)(C)C)C[C@@H]3C)c12` , please?
output: 100 to 500 nM

====

Field: EC50. Provide a value for each of the compounds that follow.
Biological target: TRPML2 (Homo sapiens, UniProt Q8IZK6)
Construct: expressed in transfected cells
Sequence (Q8IZK6 1-566): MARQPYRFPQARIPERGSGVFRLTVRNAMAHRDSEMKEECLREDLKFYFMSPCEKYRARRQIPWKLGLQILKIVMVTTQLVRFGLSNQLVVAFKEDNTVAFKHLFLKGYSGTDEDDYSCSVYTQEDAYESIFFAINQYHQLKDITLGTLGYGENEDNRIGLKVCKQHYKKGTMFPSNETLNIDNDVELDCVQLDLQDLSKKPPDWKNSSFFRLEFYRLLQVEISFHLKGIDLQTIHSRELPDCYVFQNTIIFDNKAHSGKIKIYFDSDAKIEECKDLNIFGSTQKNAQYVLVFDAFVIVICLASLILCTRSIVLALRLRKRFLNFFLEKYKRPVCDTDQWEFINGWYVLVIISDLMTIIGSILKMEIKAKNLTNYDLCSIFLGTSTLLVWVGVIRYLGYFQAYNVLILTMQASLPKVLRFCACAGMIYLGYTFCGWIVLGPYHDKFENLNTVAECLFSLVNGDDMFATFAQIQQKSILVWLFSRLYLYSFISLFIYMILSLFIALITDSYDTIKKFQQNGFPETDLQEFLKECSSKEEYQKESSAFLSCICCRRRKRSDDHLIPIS
Assay: Fluorescent TRPML2 assay (performed as for TRPML1, substituting the TRPML2 subtype)
Format: cell-based
Conditions: fluorescent calcium assay

input: Dear colleague, I am looking for the recorded EC50 of the following compound: C[C@H]1CN(C(=O)OC(C)(C)C)CCN1c1ncnc2c1c(N1CCC1)cn2-c1cc(C#N)ccn1 [Compound 407]
output: < 100 nM

input: Name the recorded EC50 for C[C@H]1CN(C(=O)OC(C)(C)C)CCN1c1ncnc2c1c(-c1cncnc1)cn2-c1cccc(Cl)c1 [Compound 327] .
output: 500 to 2000 nM

input: Reported EC50, compound C[C@H]1CN(C(=O)OC(C)(C)C)CCN1c1ncnc2c1c(-c1nccnc1F)cn2-c1cccc(Cl)c1 [Compound 267] : ____
output: 100 to 500 nM

input: I am curious: what EC50 value has been reported for C[C@H]1CN(C(=O)OC(C)(C)C)CCN1c1ncnc2c1c(C1CC1)nn2-c1cc(C#N)ccn1 [Compound 343] ?
output: > 2000 nM

====

Could you please report measured EC50 for the items listed next?
Molecular target: TRPML2 (Homo sapiens, UniProt Q8IZK6)
Construct: expressed in transfected cells
Sequence (Q8IZK6 1-566): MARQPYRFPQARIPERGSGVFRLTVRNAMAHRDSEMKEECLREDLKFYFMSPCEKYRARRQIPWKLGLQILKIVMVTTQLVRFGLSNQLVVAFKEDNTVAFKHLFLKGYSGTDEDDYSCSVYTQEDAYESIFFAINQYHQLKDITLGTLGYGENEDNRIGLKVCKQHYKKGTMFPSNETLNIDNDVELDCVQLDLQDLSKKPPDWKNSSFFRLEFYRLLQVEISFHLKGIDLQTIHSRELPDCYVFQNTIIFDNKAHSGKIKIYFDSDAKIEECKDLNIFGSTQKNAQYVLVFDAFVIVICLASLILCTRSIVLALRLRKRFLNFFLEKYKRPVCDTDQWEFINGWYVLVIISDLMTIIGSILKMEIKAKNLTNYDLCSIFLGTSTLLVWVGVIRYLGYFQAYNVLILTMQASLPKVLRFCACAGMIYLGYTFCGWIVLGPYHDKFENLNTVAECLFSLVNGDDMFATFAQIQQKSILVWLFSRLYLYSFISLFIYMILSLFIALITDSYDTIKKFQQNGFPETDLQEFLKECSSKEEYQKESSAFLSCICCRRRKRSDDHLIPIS
Assay: Fluorescent TRPML2 assay (performed as for TRPML1, substituting the TRPML2 subtype)
Assay type: cell-based
Conditions: fluorescent calcium assay

input: Return reported EC50; argument: `CCc1nccnc1-c1cn(-c2cccc(Cl)c2)c2ncnc(N3CCN(C(=O)OC(C)(C)C)C[C@@H]3C)c12`
output: 100 to 500 nM

input: Name the recorded EC50 for `C[C@H]1CN(C(=O)OC(C)(C)C)CCN1c1ncnc2c1c(-c1ccccc1F)cn2-c1ccccn1` .
output: 100 to 500 nM

input: Look at this compound and give its reported EC50. `COC(=O)N1CCN(c2ncnc3c2c(-c2ccccc2F)cn3-c2cc(C#N)ccn2)[C@@H](C)C1`
output: 500 to 2000 nM

input: Item `CC(C)(C)OC(=O)N1CCN(c2ncnc3c2c(C2CC2)cn3-c2cc(C#N)ccn2)C(C)(C)C1` has what recorded EC50?
output: < 100 nM

input: Please give the measured EC50 for this compound: `C[C@@H]1CN(c2ncnc3c2c(-c2cccnc2)cn3-c2cc(F)cc(F)c2)CCN1C(=O)OC(C)(C)C`
output: 500 to 2000 nM

input: Entry `CCOC(=O)N1C[C@H](C)N(c2ncnc3c2c(-c2cccnc2)cn3-c2cccc(Cl)c2)C[C@H]1C` : reported EC50 = ?
output: > 2000 nM

input: Which value of EC50 has been reported for `COc1cc(-n2cc(C3CC3)c3c(N4CCN(C(=O)OC(C)(C)C)C[C@@H]4C)ncnc32)ccc1F` in the records?
output: > 2000 nM

input: Which value of EC50 has been reported for `C[C@@H]1CN(c2ncnc3c2c(C2CC2)cn3-c2ccc(Cl)c(F)c2)CCN1C(=O)OC(C)(C)C` in the records?
output: < 100 nM

input: I'd like to know its EC50. The compound in question is `C[C@H]1CN(C(=O)OC(C)(C)C(F)(F)F)CCN1c1ncnc2c1c(-c1ccccn1)cn2-c1cccc(Cl)c1`
output: 100 to 500 nM

input: So what's the measured EC50 for this one? `C[C@@H]1CN(c2ncnc3c2c(N2CCC[C@@H]2C)cn3-c2cccc(Cl)c2)CCN1C(=O)OC(C)(C)C`
output: 500 to 2000 nM

input: Given the entry `C[C@@H]1CN(c2ncnc3c2c(-c2ccccc2F)cn3-c2cc(C#N)ccn2)[C@@H](C)CN1C(=O)OC(C)(C)C` , report its measured EC50.
output: < 100 nM

input: Which measured EC50 value corresponds to `Cc1cn(-c2cc(F)ccn2)c2ncnc(N3C[C@@H](C)N(C(=O)OC(C)(C)C)C[C@@H]3C)c12` ?
output: 500 to 2000 nM

input: Look up EC50 for this compound: `C[C@H]1CN(C(=O)OC(C)(C)C)CCN1c1ncnc2c1c(-c1ccccc1F)cn2-c1ncc(C#N)s1`
output: < 100 nM

input: Requested read-out: EC50. Entry: `CC(C)OC(=O)N1C[C@H](C)N(c2ncnc3c2c(-c2ccccc2F)cn3-c2cnn(C)c2)C[C@H]1C`
output: > 2000 nM

input: Which EC50 is reported for this compound? `C[C@H]1CN(C(=O)OC(C)(C)C)CCN1c1ncnc2c1c(-c1cccnc1)cn2-c1cccc(Cl)c1`
output: 100 to 500 nM

input: Reported EC50, compound `C[C@@H]1CN(c2ncnc3c2c(C(F)(F)F)cn3-c2cc(F)cc(F)c2)[C@@H](C)CN1C(=O)OC(C)(C)C` : ____
output: 100 to 500 nM

input: Look at this compound and give its reported EC50. `C[C@H]1CN(C(=O)OC(C)(C)C)CCN1c1ncnc2c1c(C1CCC1)cn2-c1cc(C#N)ccn1`
output: < 100 nM

input: Fill in the blank: the reported EC50 of `C[C@@H]1CN(c2ncnc3c2c(-n2ccnc2)cn3-c2cccc(Cl)c2)CCN1C(=O)OC(C)(C)C` is ____.
output: 500 to 2000 nM

input: Look up EC50 for this compound: `COc1cc(C#N)cc(-n2cc(C3CC3)c3c(N4CCN(C(=O)OC(C)(C)C)C[C@@H]4C)ncnc32)c1`
output: > 2000 nM

input: Quick one: EC50 for `C[C@@H]1CN(c2ncnc3c2c(-c2ccccc2F)cn3-c2cc(F)ccn2)[C@@H](C)CN1C(=O)OC(C)(C)C` ?
output: 100 to 500 nM

input: Bench note: what EC50 did `C[C@H]1CN(C(=O)OC(C)(C)C)CCN1c1ncnc2c1c(-c1ccccc1)cn2-c1cc(C#N)ccn1` show?
output: 100 to 500 nM

input: So what does the record say about EC50 for `CCOC(=O)N1C[C@H](C)N(c2ncnc3c2c(-c2ccccn2)cn3-c2cccc(Cl)c2)C[C@H]1C` ?
output: > 2000 nM

input: // EC50 lookup, key: `Cc1nccnc1-c1cn(-c2cc(F)cc(F)c2)c2ncnc(N3CCN(C(=O)OC(C)(C)C(F)(F)F)[C@H](C)C3)c12`
output: 500 to 2000 nM

input: Return reported EC50; argument: `C[C@H]1CN(c2ncnc3c2c(N2CCCC2)cn3-c2cccc(Cl)c2)CCN1C(=O)OC(C)(C)C`
output: 100 to 500 nM

input: May I ask what EC50 has been recorded for CC1CN(C(=O)OC(C)(C)C)CCN1c1nccc2c1c(-c1ccccn1)cn2-c1cccc(Cl)c1 (stereo not shown) ?
output: 100 to 500 nM

input: What value of measured EC50 is listed for `C[C@H]1CN(C(=O)OC(C)(C)C)CCN1c1ncnc2c1c(C1CC1)cn2-c1cc(C#N)cc(OC(F)(F)F)c1` ?
output: 500 to 2000 nM

input: Query: EC50; subject: `C[C@@H]1CN(c2ncnc3c2c(C(F)(F)F)cn3-c2cccc(Cl)c2)[C@@H](C)CN1C(=O)OC(C)(C)C`
output: 100 to 500 nM

input: EC50 for `C[C@@H]1CN(c2ncnc3c2c(-c2cnccn2)cn3-c2cc(F)cc(F)c2)CCN1C(=O)OC(C)(C)C` ?
output: 500 to 2000 nM

Ref: patent US20250136606A1
